Values compiled from PubChem BioAssay AID651742.

experiment: NIH3T3 cell viability loss – cherry-pick, single point, cytotoxicity control for T. cruzi proliferation inhibitor project, confirmation (AID 651742); conditions: NIH/3T3 viability, CellTiter-Glo ATP luminescence, 90 h; at 8.35 µM; stronger effect = higher value
Out of some 5,600 compounds screened, about 780 (14%) were called active. Inconclusive results (about 3%) are left out. The list is a sample of the results.
Label key: Satisfied means cytotoxicity (signal decrease) under 20%; Not satisfied means cytotoxicity (signal decrease) of 20% or more.

1) C[C@@H]1CN([C@@H](C)CO)S(=O)(=O)c2ccc(C#Cc3ccc(F)cc3)cc2O[C@H]1CN(C)S(C)(=O)=O; Not satisfied
2) N#Cc1cccc(-c2ccc([C@H]3[C@H](CO)N4CCCCN(C(=O)Nc5cccc(F)c5)C[C@@H]34)cc2)c1; Not satisfied
3) C[C@@H]1CN([C@@H](C)CO)C(=O)c2cc(NC(=O)Nc3ccc(C(F)(F)F)cc3)ccc2O[C@@H](C)CCCCO[C@H]1CN(C)C(=O)c1ccccc1; Not satisfied
4) C[C@H](CO)N1C[C@H](C)[C@H](CN(C)S(=O)(=O)c2ccc(F)cc2)OCCCC[C@H](C)Oc2ccc(NS(=O)(=O)c3ccc(Cl)cc3)cc2C1=O; Not satisfied
5) CC(C)(C)[S@@](=O)N1Cc2cc(C(=O)NCc3ccc4c(c3)OCO4)nc(-c3cccc(-c4ccccc4)c3)c2[C@H]1CCO; Not satisfied
6) Cc1ccc(S(=O)(=O)N(C)C[C@@H]2Oc3c(NC(=O)c4nc5ccccc5s4)cccc3C(=O)N([C@H](C)CO)C[C@@H]2C)cc1; Not satisfied
7) COc1ccc(C#Cc2cnc3c(c2)C(=O)N([C@@H](C)CO)C[C@H](C)[C@@H](CN(C)C(C)=O)O3)cc1; Satisfied
8) O=C(NCC1CCCCC1)[C@H]1[C@H](CO)[C@H]2Cn3c(cccc3=O)[C@H]2N1C(=O)CC1CC1; Satisfied
9) C[C@@H]1CN([C@@H](C)CO)S(=O)(=O)c2ccc(C#Cc3ccc(F)cc3)cc2O[C@H]1CN(C)C(=O)NC1CCCC1; Satisfied
10) C[C@H]1CCCCO[C@@H](CN(C)S(=O)(=O)c2cccs2)[C@@H](C)CN([C@@H](C)CO)C(=O)c2cc(NS(=O)(=O)c3ccc(Cl)cc3)ccc2O1; Satisfied
11) C[C@@H]1CN([C@@H](C)CO)S(=O)(=O)c2ccc(/C=C/c3ccccc3)cc2O[C@H]1CN(C)Cc1ccccc1; Not satisfied
12) C[C@H](CO)N1C[C@H](C)[C@@H](CN(C)S(=O)(=O)c2ccc(F)cc2)Oc2cc(C3=CCCC3)ccc2S1(=O)=O; Not satisfied
13) C[C@@H]1CN([C@H](C)CO)S(=O)(=O)c2ccc(C#C[C@@H](C)O)cc2O[C@@H]1CN(C)Cc1ccc(-c2ccccc2)cc1; Satisfied
14) COc1ccccc1-c1ccc2c(c1)O[C@H](CN(C)S(=O)(=O)c1ccc(C)cc1)[C@@H](C)CN([C@H](C)CO)S2(=O)=O; Not satisfied
15) C[C@H]1CN([C@@H](C)CO)S(=O)(=O)c2ccc(C#Cc3cccc(F)c3)cc2O[C@@H]1CN(C)S(=O)(=O)c1cn(C)cn1; Not satisfied
16) C[C@@H]1CN([C@H](C)CO)S(=O)(=O)c2ccc(C#Cc3ccncc3)cc2O[C@@H]1CN(C)S(=O)(=O)c1ccc(F)cc1; Not satisfied
17) C[C@@H]1CN([C@H](C)CO)S(=O)(=O)c2ccc(C#CC3CCCC3)cc2O[C@@H]1CN(C)C(=O)Cc1ccncc1; Satisfied
18) C[C@@H]1CN([C@@H](C)CO)C(=O)c2cc(NC(=O)Cc3ccccc3)ccc2O[C@@H]1CN(C)Cc1ccc(Oc2ccccc2)cc1; Not satisfied
19) CC(C)C#Cc1ccc2c(c1)O[C@H](CN(C)Cc1ccccc1)[C@H](C)CN([C@@H](C)CO)S2(=O)=O; Not satisfied
20) COCCNC[C@@H]1[C@H](c2ccccc2)[C@H](CO)N1c1nc(C)c(C)s1; Satisfied
21) Cc1ccc(S(=O)(=O)Nc2ccc3c(c2)C(=O)N([C@H](C)CO)C[C@H](C)[C@H](CN(C)Cc2ccc(Cl)c(Cl)c2)O3)cc1; Satisfied
22) C[C@H](CO)N1C[C@H](C)[C@H](CN(C)C(=O)Nc2ccc(C(F)(F)F)cc2)OCCCC[C@H](C)Oc2ccc(NC(=O)C3CCCCC3)cc2C1=O; Satisfied
23) C[C@@H]1CN([C@H](C)CO)S(=O)(=O)c2ccc(-c3cccc(F)c3)cc2O[C@H]1CN(C)S(=O)(=O)c1ccc(F)cc1; Not satisfied
24) C[C@@H]1CCCCO[C@H](CN(C)Cc2ccc(Cl)c(Cl)c2)[C@H](C)CN([C@@H](C)CO)C(=O)c2cc(NC(=O)C3CCCCC3)ccc2O1; Satisfied
25) C[C@@H]1CCCCO[C@H](CN(C)C(=O)NC2CCCCC2)[C@H](C)CN([C@H](C)CO)C(=O)c2cc(NS(=O)(=O)c3ccc(Cl)cc3)ccc2O1; Satisfied
26) CN1C(=O)c2cc(NC(=O)c3cnccn3)ccc2OC[C@@H]2O[C@H](CC(=O)N[C@@H]3CCN(Cc4ccccc4)C3)CC[C@@H]21; Satisfied
27) O=C(Nc1cccc(F)c1)N1CCCCN2[C@H](CO)[C@H](c3ccc(C#CC4CC4)cc3)[C@@H]2C1; Not satisfied
